Just for reference, patent US9828375B2 is where these values come from.

# Target: FGFR2 (Homo sapiens)
# Sequence (P21802 22-821): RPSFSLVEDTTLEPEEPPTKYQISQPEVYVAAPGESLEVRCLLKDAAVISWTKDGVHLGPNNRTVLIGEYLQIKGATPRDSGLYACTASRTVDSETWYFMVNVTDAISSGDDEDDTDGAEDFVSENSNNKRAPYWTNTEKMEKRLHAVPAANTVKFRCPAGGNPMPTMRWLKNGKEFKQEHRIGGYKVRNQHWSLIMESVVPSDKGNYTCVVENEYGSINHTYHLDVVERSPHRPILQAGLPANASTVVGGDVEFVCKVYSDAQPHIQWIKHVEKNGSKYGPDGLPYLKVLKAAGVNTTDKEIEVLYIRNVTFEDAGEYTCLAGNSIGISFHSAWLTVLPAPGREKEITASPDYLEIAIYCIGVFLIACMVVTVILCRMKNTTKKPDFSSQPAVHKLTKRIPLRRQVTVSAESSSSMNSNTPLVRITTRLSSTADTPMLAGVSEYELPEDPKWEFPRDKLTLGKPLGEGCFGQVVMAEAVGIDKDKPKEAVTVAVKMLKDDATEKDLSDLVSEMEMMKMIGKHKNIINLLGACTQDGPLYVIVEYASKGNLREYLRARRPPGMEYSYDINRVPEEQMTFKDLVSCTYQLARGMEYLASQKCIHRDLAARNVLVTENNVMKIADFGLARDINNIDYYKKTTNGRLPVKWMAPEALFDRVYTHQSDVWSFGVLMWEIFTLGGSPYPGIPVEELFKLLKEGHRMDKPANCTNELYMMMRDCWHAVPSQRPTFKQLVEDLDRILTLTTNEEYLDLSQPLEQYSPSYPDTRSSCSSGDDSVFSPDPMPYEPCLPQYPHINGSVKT
# Assay remarks: Kinase inhibition activity test, isotope labeling: FGFR2
# Format: biochemical
# Study conditions: test compound at a concentration of 10 μM; read-out: Activity inhibition rate FGFR2 (h)

# Smiles input, Target, Measurement units, Value prefix, inhibition at 10 µM
data = [
    ("O=C(Nc1ccc(Oc2ncnc3[nH]ncc23)cc1)Nc1cccc(C(F)(F)F)c1", "FGFR2 (Homo sapiens)", "%", "=", 56),
    ("CC(C)n1ncc2c(Oc3ccc(NC(=O)Nc4cc(C(C)(C)C)on4)cc3)ncnc21", "FGFR2 (Homo sapiens)", "%", ">", 30),
    ("O=C(Nc1ccc(Oc2ncnc3[nH]ncc23)cc1)Nc1ccc(C(F)(F)F)cc1", "FGFR2 (Homo sapiens)", "%", "=", 22),
    ("COc1ccc(NC(=O)Nc2ccc(NC(=O)N3C=NC=C4NNC=C43)cc2)cc1", "FGFR2 (Homo sapiens)", "%", "=", 32),
    ("O=C(Nc1cccc(Nc2ncnc3[nH]ncc23)c1)Nc1ccc(F)c(Cl)c1", "FGFR2 (Homo sapiens)", "%", "=", 22),
]

----------
# Target: EphB2 (Homo sapiens, UniProt P29323)
# Sequence (P29323 19-1055): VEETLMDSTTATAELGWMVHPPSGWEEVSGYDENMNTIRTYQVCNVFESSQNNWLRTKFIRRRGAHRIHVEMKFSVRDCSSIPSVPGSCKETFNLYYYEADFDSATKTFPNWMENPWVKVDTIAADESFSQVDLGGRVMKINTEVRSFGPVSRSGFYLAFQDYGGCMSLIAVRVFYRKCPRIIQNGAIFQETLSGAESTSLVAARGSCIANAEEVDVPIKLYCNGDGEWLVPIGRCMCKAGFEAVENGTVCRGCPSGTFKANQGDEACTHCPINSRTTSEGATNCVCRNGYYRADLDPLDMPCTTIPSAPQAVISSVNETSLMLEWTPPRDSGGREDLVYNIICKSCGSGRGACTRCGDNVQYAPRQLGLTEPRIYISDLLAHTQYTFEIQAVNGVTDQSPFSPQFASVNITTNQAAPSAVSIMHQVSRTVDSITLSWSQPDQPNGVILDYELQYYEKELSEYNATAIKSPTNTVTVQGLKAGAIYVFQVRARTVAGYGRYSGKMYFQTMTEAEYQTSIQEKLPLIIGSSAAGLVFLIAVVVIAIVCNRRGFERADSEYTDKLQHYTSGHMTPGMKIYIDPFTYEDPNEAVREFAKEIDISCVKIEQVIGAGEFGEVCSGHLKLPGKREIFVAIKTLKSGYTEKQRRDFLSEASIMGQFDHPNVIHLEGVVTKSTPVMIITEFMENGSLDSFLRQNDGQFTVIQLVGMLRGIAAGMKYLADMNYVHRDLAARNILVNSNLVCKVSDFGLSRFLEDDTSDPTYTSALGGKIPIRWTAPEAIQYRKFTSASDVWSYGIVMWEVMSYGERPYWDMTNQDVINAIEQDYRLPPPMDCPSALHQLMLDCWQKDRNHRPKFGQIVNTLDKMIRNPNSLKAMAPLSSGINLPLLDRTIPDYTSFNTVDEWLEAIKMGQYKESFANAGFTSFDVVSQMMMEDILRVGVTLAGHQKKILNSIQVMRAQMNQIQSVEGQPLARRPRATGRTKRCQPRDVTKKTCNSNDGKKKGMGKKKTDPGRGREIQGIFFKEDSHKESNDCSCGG

# Smiles input, Target, Value prefix, IC50 (nM)
data = [
    ("O=C(Nc1ccc(Oc2ncnc3[nH]ncc23)cc1)Nc1cccc(C(F)(F)F)c1", "EphB2 (Homo sapiens, UniProt P29323)", "=", 138),
    ("CC(C)(C)c1cc(NC(=O)Nc2ccc(Oc3ncnc4[nH]ncc34)cc2)on1", "EphB2 (Homo sapiens, UniProt P29323)", "<", 10000),
]
